B1: H2-Kb / Ed33 (parent complex)
chain 1: SQLAEENSWALSVHEGESVTVNCSYKTSITALQWYRQKSGKGPAQLILIRSNEREKRNGRLRATLDTSSQSSSLSITATRCEDTAVYFCATDHNNAGAKLTFGGGTRLTVRP
chain 2: DAGVTQTPRHEVAEKGQTIILKCEPVSGHNDLFWYRQTKIQGLELLSYFRSKSLMEDGGAFKDRFKAEMLNSSFSTLKIQPTEPKDSAVYLCASSLYTNQAPLFGEGTRLSVL
chain 3: not shown
chain 4: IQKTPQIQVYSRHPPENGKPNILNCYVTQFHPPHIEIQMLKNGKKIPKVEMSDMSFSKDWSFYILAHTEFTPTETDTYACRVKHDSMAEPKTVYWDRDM
chain 5: SIINFEKL

- Variants of: B1
- procedure-text: % of reporter cells activated (NFAT-GFP), raw; further: test concentration or dose not given here
measured-attribute: ratio to parent

Answered cases to consult:
- sequence-variant: "chain 5 E6W"
  ratio to parent: 0.0137
- sequence-variant: "chain 5 N4Q"
  ratio to parent: 0.00449
- sequence-variant: "chain 5 K7Y"
  ratio to parent: 0.157
- sequence-variant: "chain 5 L8M"
  ratio to parent: 0.936
- sequence-variant: "chain 5 E6V"
  ratio to parent: 0.0218

**Q:** Please give the measured ratio to parent for this variant: chain 5 F5L
**A:** 0.916

**Q:** Entry chain 5 F5Q please
**A:** 1.01

**Q:** Entry chain 5 S1H please
**A:** 0.634

**Q:** Entry chain 5 N4R please
**A:** 0.168

**Q:** Entry chain 5 E6C please
**A:** 0.0452

**Q:** Entry chain 5 I3K please
**A:** 0.656
